# MEASURED_TARGET: human GPR40 receptor (Homo sapiens)
# PROTOCOL_DETAILS: Assay II: IP1 accumulation (IPOne HTRF) in 1321N1 cells stably expressing human GPR40
# Type: cell-based
# MEASUREMENT_SETUP: 1321N1 cells expressing human GPR40, stimulation 1 h at 37° C., 5% CO2, LiCl 50 mM
pEC50: −log10 of the molar value.
Lab note: compare pEC50 against 8. Equal or greater, write true (1). Smaller, write false (0).

query: Check this compound for pEC50 at or above 8: Cc1cnc(-c2cc(C)c(-c3ccc(F)c4c3CC[C@H]4Oc3ccc4c(c3)OC[C@H]4CC(=O)O)c(C)c2)cn1
result: true (1)

query: Textbook exercise: given the entry COc1nccc(-c2cc(C)c(-c3ccc(F)c4c3CC[C@H]4Oc3ccc4c(c3)OC[C@H]4CC(=O)O)c(C)c2)n1 , state whether its pEC50 is greater than or equal to 8.
result: true (1)

query: Please tell me: is the compound Cc1cc(-c2nnn(C)n2)cc(C)c1-c1ccc(F)c2c1CC[C@H]2Oc1ccc2c(c1)OC[C@H]2CC(=O)O at or over 8 in terms of pEC50?
result: true (1)

query: Does Cc1cc(-c2ccncn2)cc(C)c1-c1ccc(F)c2c1CC[C@H]2Oc1ccc2c(c1)OC[C@H]2CC(=O)O have a reported pEC50 of at least 8?
result: true (1)

query: pEC50 >= 8 for O=C(O)C[C@@H]1COc2cc(O[C@@H]3CCc4c(-c5cccnc5-c5ccoc5)ccc(F)c43)ccc21 ?
result: false (0)

query: Dear colleague, could you confirm whether CCc1ccc(-c2cc(C)c(-c3ccc(F)c4c3CC[C@H]4Oc3ccc4c(c3)OC[C@H]4CC(=O)O)c(C)c2)nn1 has pEC50 at or above 8?
result: true (1)

query: Dear colleague, could you confirm whether Cc1cc(CCNS(C)(=O)=O)cc(C)c1-c1ccc(F)c2c1CC[C@H]2Oc1ccc2c(c1)OC[C@H]2CC(=O)O has pEC50 at or above 8?
result: false (0)

query: Determine whether this compound has pEC50 no lower than 8: Cc1cc(O[C@H]2CCCN(S(C)(=O)=O)C2)cc(C)c1-c1ccc(F)c2c1CC[C@H]2Oc1ccc2c(c1)OC[C@H]2CC(=O)O
result: false (0)

query: Is it the case that CC(C)(C)COc1ncccc1-c1ccc(F)c2c1CC[C@H]2Oc1ccc2c(c1)OC[C@H]2CC(=O)O has pEC50 reaching or exceeding 8?
result: false (0)

---

For each record, write down the corresponding pEC50.
# MEASURED_TARGET: human GPR40 receptor (Homo sapiens, UniProt O14842)
# Sequence (O14842 whole entry): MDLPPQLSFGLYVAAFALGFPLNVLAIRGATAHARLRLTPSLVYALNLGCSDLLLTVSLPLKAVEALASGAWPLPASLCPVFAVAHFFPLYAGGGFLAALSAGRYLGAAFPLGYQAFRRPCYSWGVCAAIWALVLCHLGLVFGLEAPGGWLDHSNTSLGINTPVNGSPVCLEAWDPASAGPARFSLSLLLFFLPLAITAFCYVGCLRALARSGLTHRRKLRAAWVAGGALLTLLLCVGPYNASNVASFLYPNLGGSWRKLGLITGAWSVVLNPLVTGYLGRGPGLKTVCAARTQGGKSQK
# PROTOCOL_DETAILS: Assay II: IP1 accumulation (IPOne HTRF) in 1321N1 cells stably expressing human GPR40
# Type: cell-based
# MEASUREMENT_SETUP: 1321N1 cells expressing human GPR40, stimulation 1 h at 37° C., 5% CO2, LiCl 50 mM
Would you please state pEC50, meaning minus log10 of the concentration in mol/L, as a bare number?

The recorded pEC50 for Cc1cc(-c2cc(C)c(-c3ccc(F)c4c3CC[C@H]4Oc3ccc4c(c3)OC[C@H]4CC(=O)O)c(C)c2)ccn1 [Example 107] is 8.40

Cc1ccnc(-c2cc(C)c(-c3ccc(F)c4c3CC[C@H]4Oc3ccc4c(c3)OC[C@H]4CC(=O)O)c(C)c2)n1 [Example 119] has a reported pEC50 of 9.00

For record Cc1cccc(C)c1-c1ncccc1-c1ccc(F)c2c1CC[C@H]2Oc1ccc2c(c1)OC[C@H]2CC(=O)O [Example 124] the listed pEC50 is 6.47

pEC50 recorded for this compound, COc1cc(-c2cc(C)c(-c3ccc(F)c4c3CC[C@H]4Oc3ccc4c(c3)OC[C@H]4CC(=O)O)c(C)c2)ccn1 [Example 116] , is 8.52

pEC50 for Cc1cc(OC(C)(C)CO)cc(C)c1-c1ccc(F)c2c1CC[C@H]2Oc1ccc2c(c1)OC[C@H]2CC(=O)O [Example 55] is 7.60

Form field pEC50, entry Cc1cc(-c2cnc(C3CC3)cn2)cc(C)c1-c1ccc(F)c2c1CC[C@H]2Oc1ccc2c(c1)OC[C@H]2CC(=O)O [Example 123] : 8.15

// sample Cc1cc(-c2nnn[nH]2)cc(C)c1-c1ccc(F)c2c1CC[C@H]2Oc1ccc2c(c1)OC[C@H]2CC(=O)O [Example 94] , its pEC50 was 7.09

---

# MEASURED_TARGET: human GPR40 receptor (Homo sapiens, UniProt O14842)
# PROTOCOL_DETAILS: Assay II: IP1 accumulation (IPOne HTRF) in 1321N1 cells stably expressing human GPR40
# Format: cell-based
# MEASUREMENT_SETUP: 1321N1 cells expressing human GPR40, stimulation 1 h at 37° C., 5% CO2, LiCl 50 mM
Consider the following partition of reported EC50 into named classes: low (below 5 nM), middle (5 nM to below 10 nM), high (10 nM or more)

query: Looking at Cc1cncc(-c2cc(C)c(-c3ccc(F)c4c3CC[C@H]4Oc3ccc4c(c3)OC[C@H]4CC(=O)O)c(C)c2)n1 , which class would you pick?
result: low

query: Please let me know in which category the item Cc1nc(-c2cc(C)c(-c3ccc(F)c4c3CC[C@H]4Oc3ccc4c(c3)OC[C@H]4CC(=O)O)c(C)c2)no1 belongs.
result: low

query: In plain terms, what class is Cc1cc(OCc2nccn2C)cc(C)c1-c1ccc(F)c2c1CC[C@H]2Oc1ccc2c(c1)OC[C@H]2CC(=O)O ?
result: high

query: Bin this entry: Cc1cc(OC2CCN(S(C)(=O)=O)CC2)cc(C)c1-c1ccc(F)c2c1CC[C@H]2Oc1ccc2c(c1)OC[C@H]2CC(=O)O
result: high

query: State the band of Cc1cc(C)nc(-c2cc(C)c(-c3ccc(F)c4c3CC[C@H]4Oc3ccc4c(c3)OC[C@H]4CC(=O)O)c(C)c2)c1
result: low

query: Could you tell me which band Cc1cc(C2=CC(=O)OCC2)cc(C)c1-c1ccc(F)c2c1CC[C@H]2Oc1ccc2c(c1)OC[C@H]2CC(=O)O belongs to?
result: middle

query: State the band of O=C(O)C[C@@H]1COc2cc(O[C@@H]3CCc4c(-c5cccnc5N5CCOCC5)ccc(F)c43)ccc21
result: high

query: Which bin should I file Cc1cc(OCC2(O)CCS(=O)(=O)CC2)cc(C)c1-c1ccc(F)c2c1CC[C@H]2Oc1ccc2c(c1)OC[C@H]2CC(=O)O under?
result: middle

query: Band assignment needed for Cc1nn(C)c(C)c1-c1ncccc1-c1ccc(F)c2c1CC[C@H]2Oc1ccc2c(c1)OC[C@H]2CC(=O)O please.
result: high

query: Lab note: which band did O=C(O)C[C@@H]1COc2cc(O[C@@H]3CCc4c(-c5cccnc5C5CCOCC5)ccc(F)c43)ccc21 land in?
result: high

query: Determine which band this molecule sits in: Cc1cc(OC2CCN(C)C2=O)cc(C)c1-c1ccc(F)c2c1CC[C@H]2Oc1ccc2c(c1)OC[C@H]2CC(=O)O (stereo partly drawn)
result: high

query: Could you tell me which band CC(=O)NCCc1cc(C)c(-c2ccc(F)c3c2CC[C@H]3Oc2ccc3c(c2)OC[C@H]3CC(=O)O)c(C)c1 belongs to?
result: high

query: Record Cc1ccc(-c2cc(C)c(-c3ccc(F)c4c3CC[C@H]4Oc3ccc4c(c3)OC[C@H]4CC(=O)O)c(C)c2)cn1 — which class?
result: low

query: Category of Cc1cc(-c2c(C)nn(C)c2C)cc(C)c1-c1ccc(F)c2c1CC[C@H]2Oc1ccc2c(c1)OC[C@H]2CC(=O)O :
result: middle

query: Lab note: which band did Cc1cc(OC(C)(C)C(N)=O)cc(C)c1-c1ccc(F)c2c1CC[C@H]2Oc1ccc2c(c1)OC[C@H]2CC(=O)O land in?
result: high

query: Please indicate the class for Cc1cc(OCC2CCCS(=O)(=O)C2)cc(C)c1-c1ccc(F)c2c1CC[C@H]2Oc1ccc2c(c1)OC[C@H]2CC(=O)O (stereo partly drawn) based on its EC50.
result: middle

query: Form field 'band' for Cc1cc(-c2nnn(C(C)(C)CO)n2)cc(C)c1-c1ccc(F)c2c1CC[C@H]2Oc1ccc2c(c1)OC[C@H]2CC(=O)O
result: low

query: Class (by measured EC50) for Cc1cnc(-c2cc(C)c(-c3ccc(F)c4c3CC[C@H]4Oc3ccc4c(c3)OC[C@H]4CC(=O)O)c(C)c2)nc1
result: low

query: Form: Item = Cc1cc(-c2noc(C(C)(C)O)n2)cc(C)c1-c1ccc(F)c2c1CC[C@H]2Oc1ccc2c(c1)OC[C@H]2CC(=O)O ; Class = ?
result: low

query: GET /class?item= Cc1ccc(-c2cc(C)c(-c3ccc(F)c4c3CC[C@H]4Oc3ccc4c(c3)OC[C@H]4CC(=O)O)c(C)c2)nn1
result: low

query: Textbook exercise: identify the category of the molecule given here, Cc1cccnc1-c1cc(C)c(-c2ccc(F)c3c2CC[C@H]3Oc2ccc3c(c2)OC[C@H]3CC(=O)O)c(C)c1 , according to its measured value.
result: middle

query: Would you mind sorting CN(C)C(=O)c1ccccc1-c1ccc(F)c2c1CC[C@H]2Oc1ccc2c(c1)OC[C@H]2CC(=O)O into the appropriate category?
result: high

query: Lab log: Cc1cc(C2CCOC2)cc(C)c1-c1ccc(F)c2c1CC[C@H]2Oc1ccc2c(c1)OC[C@H]2CC(=O)O (stereo partly drawn) — assign EC50 category
result: high

query: Could you tell me which band Cc1cc(-c2ccc(=O)n(C)c2)cc(C)c1-c1ccc(F)c2c1CC[C@H]2Oc1ccc2c(c1)OC[C@H]2CC(=O)O belongs to?
result: middle
